- assay-protocol: Volume of distribution at steady state in iv and po dosed rat
- Type: ADME, organism-based
- settings: in vivo, read-out: Vdss
Assignment: determine reported Vd for the given compounds.
Could you give me the number in L/kg? Just the number is fine.

Output measured Vd for this item: CC(C)(Cc1ccc2ccccc2c1)NC[C@@H](O)COc1ccc(CCC(=O)O)cc1
2.1

Output measured Vd for this item: CC(C)(Cc1ccc2ccccc2c1)NC[C@@H](O)COc1ccc(CCC(=O)O)cc1C#N
1.18

Output measured Vd for this item: CC(C)(Cc1ccc2ccccc2c1)NC[C@@H](O)COc1cccc(Cl)c1C#N
11

* * *

- study-system: Sodium-dependent serotonin transporter (Homo sapiens)
- Sequence (P31645 whole entry): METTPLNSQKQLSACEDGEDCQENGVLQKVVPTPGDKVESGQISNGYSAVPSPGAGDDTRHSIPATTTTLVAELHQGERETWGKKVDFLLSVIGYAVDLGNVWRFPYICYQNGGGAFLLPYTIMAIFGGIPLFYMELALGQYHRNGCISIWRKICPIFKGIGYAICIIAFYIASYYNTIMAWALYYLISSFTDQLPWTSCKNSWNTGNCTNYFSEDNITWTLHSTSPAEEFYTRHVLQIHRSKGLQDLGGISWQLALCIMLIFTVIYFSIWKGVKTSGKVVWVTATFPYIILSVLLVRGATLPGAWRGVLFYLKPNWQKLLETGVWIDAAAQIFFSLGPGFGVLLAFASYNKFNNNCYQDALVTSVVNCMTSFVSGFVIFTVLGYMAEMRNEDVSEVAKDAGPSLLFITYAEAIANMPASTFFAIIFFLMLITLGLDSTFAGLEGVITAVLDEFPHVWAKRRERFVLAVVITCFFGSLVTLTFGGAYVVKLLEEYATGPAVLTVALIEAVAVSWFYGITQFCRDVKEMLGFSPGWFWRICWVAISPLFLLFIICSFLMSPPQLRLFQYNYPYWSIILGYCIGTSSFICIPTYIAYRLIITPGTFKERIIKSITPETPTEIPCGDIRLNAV
parameter-measured: pIC50
Lab note: report pIC50 as minus log10 of the concentration in molar units, number only.

Output measured pIC50 for this item: CC(C)(Cc1ccc2ccccc2c1)NC[C@@H](O)COc1ccc(CCC(=O)O)cc1
7.17

Output measured pIC50 for this item: CCOC(=O)CCc1ccc(OC[C@H](O)CNC(C)(C)Cc2ccc3ccccc3c2)c(C#N)c1.Cl
7.11

Output measured pIC50 for this item: CC(C)(Cc1ccc2ccccc2c1)NC[C@@H](O)COc1ccc(CCC(=O)O)cc1C#N
7.64

The reported numbers originate from ChEMBL document CHEMBL1154613.
